target_or_system: Neuropeptide Y receptor type 5 (Homo sapiens, UniProt Q15761)
protocol: Tested for the inhibition of [125I]PYY binding to HEK 293 cells stably expressed with human neuropeptide NPY Y5 receptor at a concentration of 10e-6 M
Format: cell-based, HEK293
metric_name: IC50 (nM)

> print(dat)
                                   molecule  metric.name  quantitative.readout
1  Cc1cccc(C(O)CNC(=O)C2CCN(C(=O)Cn3c(=O)sc4ccc(Cl)cc43)CC2)n1 (stereo unspecified)         IC50                   3.3

---

target_or_system: Neuropeptide Y receptor type 5 (Homo sapiens)
protocol: Tested for the inhibition of [125I]PYY binding to HEK 293 cells stably expressed with human neuropeptide NPY Y5 receptor at a concentration of 10e-6 M
Type: cell-based
protocol_conditions: HEK293
metric_name: inhibition (%)

> print(dat)
                                item.smiles  quantitative.readout
1  O=C(Nc1ccc(Oc2ccccc2)cc1)C1CCN(C(=O)Cn2c(=O)sc3ccc(Cl)cc32)CC1                  97.2
2  O=C(Nc1nc2cc(Cl)ccc2o1)C1CCN(C(=O)Cn2c(=O)sc3ccc(Cl)cc32)CC1                  86.2
3  CN(CCc1ccccn1)C(=O)C1CCN(C(=O)Cn2c(=O)sc3ccc(Cl)cc32)CC1                  87.9
4  CC(=O)c1cccc(NC(=O)C2CCN(C(=O)Cn3c(=O)sc4ccc(Cl)cc43)CC2)c1                   100
5  O=C(c1ccccc1)c1cccc(NC(=O)C2CCN(C(=O)Cn3c(=O)sc4ccc(Cl)cc43)CC2)c1                   102

---

Attribute: inhibition
target_or_system: Neuropeptide Y receptor type 5 (Homo sapiens) (UniProt Q15761)
protocol: Tested for the inhibition of [125I]PYY binding to HEK 293 cells stably expressed with human neuropeptide NPY Y5 receptor at a concentration of 10e-7 M
Format: cell-based
protocol_conditions: HEK293
metric_name: inhibition (%)

> print(dat)
                                item.smiles  units.label  quantitative.readout
1  O=C(Nc1ccc(CCO)cc1)C1CCN(C(=O)Cn2c(=O)sc3ccc(Cl)cc32)CC1            %                   101
2  O=C(Cn1c(=O)sc2ccc(Cl)cc21)N1CCC(C(=O)N2CCc3ccccc3C2)CC1            %                  15.6
3  O=C(Nc1ccc(Oc2ccccc2)cc1)C1CCN(C(=O)Cn2c(=O)sc3ccc(Cl)cc32)CC1            %                  99.4
4  COc1ccc(CNC(=O)C2CCN(C(=O)Cn3c(=O)sc4ccc(Cl)cc43)CC2)cc1            %                   105
5  NS(=O)(=O)c1ccc(CCNC(=O)C2CCN(C(=O)Cn3c(=O)sc4ccc(Cl)cc43)CC2)cc1            %                  88.8

---

target_or_system: Neuropeptide Y receptor type 5 (Homo sapiens)
Sequence (whole entry): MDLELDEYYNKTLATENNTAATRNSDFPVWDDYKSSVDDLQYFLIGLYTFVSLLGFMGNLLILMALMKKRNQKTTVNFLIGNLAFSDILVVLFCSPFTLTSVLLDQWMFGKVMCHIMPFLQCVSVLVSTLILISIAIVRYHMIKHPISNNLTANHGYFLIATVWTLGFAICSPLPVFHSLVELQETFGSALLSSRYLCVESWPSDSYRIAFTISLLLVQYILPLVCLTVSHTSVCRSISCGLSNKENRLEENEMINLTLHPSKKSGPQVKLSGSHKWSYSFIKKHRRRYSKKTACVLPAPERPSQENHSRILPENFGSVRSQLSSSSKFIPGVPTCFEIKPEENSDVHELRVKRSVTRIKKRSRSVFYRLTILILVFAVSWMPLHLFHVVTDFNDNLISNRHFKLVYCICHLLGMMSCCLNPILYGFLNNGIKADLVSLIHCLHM
protocol: Tested for the inhibition of [125I]PYY binding to HEK 293 cells stably expressed with human neuropeptide NPY Y5 receptor at a concentration of 10e-9 M
Assay type: cell-based
protocol_conditions: HEK293
The threshold is inclusive: inhibition of exactly 20% counts as rule met; values below receive rule not met.

> print(dat)
                                item.smiles   group.label
1  O=C(Nc1nc2cc(Cl)ccc2o1)C1CCN(C(=O)Cn2c(=O)sc3ccc(Cl)cc32)CC1  rule not met
2  O=C(Nc1ccc(Oc2ccccc2)cc1)C1CCN(C(=O)Cn2c(=O)sc3ccc(Cl)cc32)CC1      rule met
3  COc1ccc(NC(=O)C2CCN(C(=O)Cn3c(=O)sc4ccc(Cl)cc43)CC2)cn1      rule met
4  O=C(c1ccccc1)c1cccc(NC(=O)C2CCN(C(=O)Cn3c(=O)sc4ccc(Cl)cc43)CC2)c1      rule met

---

Attribute: inhibition
target_or_system: Neuropeptide Y receptor type 5 (Homo sapiens) (UniProt Q15761)
protocol: Tested for the inhibition of [125I]PYY binding to HEK 293 cells stably expressed with human neuropeptide NPY Y5 receptor at a concentration of 10e-9 M
Format: cell-based
protocol_conditions: HEK293
metric_name: inhibition (%)

> print(dat)
                                   compound  metric.name  quantitative.readout
1  COc1ccc(CNC(=O)C2CCN(C(=O)Cn3c(=O)sc4ccc(Cl)cc43)CC2)cc1   inhibition                  11.5
2  O=C(Cn1c(=O)sc2ccc(Cl)cc21)N1CCC(C(=O)N2CCCc3ccccc32)CC1   inhibition                  -4.5
3  O=C(Nc1ccc(F)c(C(F)(F)F)c1)C1CCN(C(=O)Cn2c(=O)sc3ccc(Cl)cc32)CC1   inhibition                  52.6
4  O=C(NCC(O)c1ccccc1)C1CCN(C(=O)Cn2c(=O)sc3ccc(Cl)cc32)CC1 (centres undefined)   inhibition                  47.8
5  O=C(Nc1cccc2ccccc12)C1CCN(C(=O)Cn2c(=O)sc3ccc(Cl)cc32)CC1   inhibition                  49.3
6  Cc1ccc2nc(NC(=O)C3CCN(C(=O)Cn4c(=O)sc5ccc(Cl)cc54)CC3)sc2c1   inhibition                  31.9
7  CC(=O)c1cccc(NC(=O)C2CCN(C(=O)Cn3c(=O)sc4ccc(Cl)cc43)CC2)c1   inhibition                  41.5
8  O=C(Nc1ccc(CCO)cc1)C1CCN(C(=O)Cn2c(=O)sc3ccc(Cl)cc32)CC1   inhibition                  28.7
9  Cc1cc(O)ccc1NC(=O)C1CCN(C(=O)Cn2c(=O)sc3ccc(Cl)cc32)CC1   inhibition                   5.6

---

protocol: Plasma concentration after oral administration of 100 mg/kg to rats
Type: ADME, organism-based
Parameters: dose 100 mg/kg, route oral
protocol_conditions: rat
metric_name: Cmax (ng/mL)

> print(dat)
                                   molecule  metric.name  quantitative.readout
1  Cc1cccc(C(O)CNC(=O)C2CCN(C(=O)Cn3c(=O)sc4ccc(Cl)cc43)CC2)n1 (stereo unspecified)         Cmax                 15700

---

target_or_system: UniProt:Q15761
Sequence (whole entry): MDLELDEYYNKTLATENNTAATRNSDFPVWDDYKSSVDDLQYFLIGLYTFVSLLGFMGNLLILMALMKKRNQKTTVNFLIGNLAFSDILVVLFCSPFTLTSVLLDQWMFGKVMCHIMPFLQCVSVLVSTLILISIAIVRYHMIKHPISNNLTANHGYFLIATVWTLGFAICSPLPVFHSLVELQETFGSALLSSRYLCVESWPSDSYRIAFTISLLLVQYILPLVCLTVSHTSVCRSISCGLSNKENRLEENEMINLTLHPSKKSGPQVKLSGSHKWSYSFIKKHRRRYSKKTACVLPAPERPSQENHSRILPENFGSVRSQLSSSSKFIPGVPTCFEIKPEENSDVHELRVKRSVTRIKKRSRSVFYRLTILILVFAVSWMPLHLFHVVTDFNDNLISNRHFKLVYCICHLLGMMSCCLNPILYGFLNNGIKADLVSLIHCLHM
protocol: Tested for the inhibition of [125I]PYY binding to HEK 293 cells stably expressed with human neuropeptide NPY Y5 receptor at a concentration of 10e-6 M
Assay type: cell-based
protocol_conditions: HEK293
metric_name: inhibition

> print(dat)
                                    compound  metric.name  result
 1  O=C(Nc1ccc(F)c(C(F)(F)F)c1)C1CCN(C(=O)Cn2c(=O)sc3ccc(Cl)cc32)CC1   inhibition    104%
 2  O=C(Nc1ccc(CCO)cc1)C1CCN(C(=O)Cn2c(=O)sc3ccc(Cl)cc32)CC1   inhibition   84.7%
 3  O=C(Cn1c(=O)sc2ccc(Cl)cc21)N1CCC(C(=O)N2CCc3ccccc32)CC1   inhibition   43.1%
 4  Cc1cccc(O)c1NC(=O)C1CCN(C(=O)Cn2c(=O)sc3ccc(Cl)cc32)CC1   inhibition   88.8%
 5  Cc1cc(O)ccc1NC(=O)C1CCN(C(=O)Cn2c(=O)sc3ccc(Cl)cc32)CC1   inhibition     95%
 6  O=C(NCC(O)c1ccccc1)C1CCN(C(=O)Cn2c(=O)sc3ccc(Cl)cc32)CC1 (centres undefined)   inhibition    108%
 7  Cc1ccc2nc(NC(=O)C3CCN(C(=O)Cn4c(=O)sc5ccc(Cl)cc54)CC3)sc2c1   inhibition    107%
 8  COc1ccc(CNC(=O)C2CCN(C(=O)Cn3c(=O)sc4ccc(Cl)cc43)CC2)cc1   inhibition     98%
 9  O=C(Nc1cccc2ccccc12)C1CCN(C(=O)Cn2c(=O)sc3ccc(Cl)cc32)CC1   inhibition    108%
10  O=C(Cn1c(=O)sc2ccc(Cl)cc21)N1CCC(C(=O)N2CCc3ccccc3C2)CC1   inhibition   77.2%
11  O=C(Cn1c(=O)sc2ccc(Cl)cc21)N1CCC(C(=O)N2CCCc3ccccc32)CC1   inhibition   51.4%
12  NS(=O)(=O)c1ccc(CCNC(=O)C2CCN(C(=O)Cn3c(=O)sc4ccc(Cl)cc43)CC2)cc1   inhibition    102%
13  O=C(NCCOS(=O)(=O)O)C1CCN(C(=O)Cn2c(=O)sc3ccc(Cl)cc32)CC1   inhibition   19.9%
14  COc1ccc(NC(=O)C2CCN(C(=O)Cn3c(=O)sc4ccc(Cl)cc43)CC2)cn1   inhibition     94%
